- measurement_protocol: physchem
- condition: 25 °C, water, thermodynamic from solid
observed_property: solubility at 24 h

Consider the reported solubility at 24 h for these compounds:
# compound, solubility at 24 h
measured = [
    ("COc1cc(C(N)=O)ccc1NC(=O)[C@@H]1N[C@@H](CC(C)(C)C)C2(C(=O)Nc3cc(Cl)ccc32)[C@H]1c1cccc(Cl)c1F (mixture of isomers) [rac-SIP, reference compound]", "< 0.1 mg/mL"),
    ("COCCOCCOCCOCCOCCOCCOCCOC(=O)OC(C)OC(=O)c1ccc(NC(=O)[C@@H]2N[C@@H](CC(C)(C)C)[C@@]3(C(=O)Nc4cc(Cl)ccc43)[C@H]2c2cccc(Cl)c2F)c(OC)c1 (mixture of isomers)", "30 mg/mL"),
]

Now look at this one.
What the record says about COc1cc(C(=O)O)ccc1NC(=O)[C@@H]1N[C@@H](CC(C)(C)C)[C@@]2(C(=O)Nc3cc(Cl)ccc32)[C@H]1c1cccc(Cl)c1F (racemic) [rac-SIP-acid, reference compound] : solubility at 24 h is < 0.1 mg/mL

###

Listed here: items and their measured Body Weights X ± SD (g), End.
- measurement_protocol: Body weights of SJSA-1 implanted nude mice (side effects)
- Assay type: in vivo
- condition: End (21 days after inoculation); doxorubicin 3.0 mg/kg i.p. x6; rac-SIP 30.0 mg/kg gavage x9; SIP-PEG compounds 30.0 mg/kg i.p. x9; rac-SIP-MPEG-2000 50.0 mg/kg i.p. x9
// units = g; emit number, no label

# compound, Body Weights X ± SD (g), End
data = [
    ("COc1cc(C(N)=O)ccc1NC(=O)[C@@H]1N[C@@H](CC(C)(C)C)C2(C(=O)Nc3cc(Cl)ccc32)[C@H]1c1cccc(Cl)c1F (mixture of isomers) [rac-SIP, reference compound]", 14.1),
    ("COCCOCCOCCOC(=O)OC(C)OC(=O)c1ccc(NC(=O)[C@@H]2N[C@@H](CC(C)(C)C)[C@@]3(C(=O)Nc4cc(Cl)ccc43)[C@H]2c2cccc(Cl)c2F)c(OC)c1 (mixture of isomers) [rac-SIP-PEG-3]", 15.9),
    ("COc1cccc2c1C(=O)c1c(O)c3c(c(O)c1C2=O)C[C@@](O)(C(=O)CO)C[C@@H]3O[C@H]1C[C@H](N)[C@H](O)[C@H](C)O1 [Doxorubicin ADM, Doxorubicin, reference compound]", 13.7),
]

What the record says about COCCOCCOCCOC(=O)OC(C)OC(=O)c1ccc(NC(=O)[C@@H]2N[C@@H](CC(C)(C)C)[C@@]3(C(=O)Nc4cc(Cl)ccc43)[C@H]2c2cccc(Cl)c2F)c(OC)c1 (single isomer, unassigned) [chiral-R-SIP-PEG-3] : Body Weights X ± SD (g), End is 19.2

What the record says about COCCOCCOCCOCCOCCOCCOCCOC(=O)OC(C)OC(=O)c1ccc(NC(=O)[C@@H]2N[C@@H](CC(C)(C)C)[C@@]3(C(=O)Nc4cc(Cl)ccc43)[C@H]2c2cccc(Cl)c2F)c(OC)c1 (mixture of isomers) [rac-SIP-PEG-7] : Body Weights X ± SD (g), End is 16.1

What the record says about COCCOCCOC(=O)OC(C)OC(=O)c1ccc(NC(=O)[C@@H]2N[C@@H](CC(C)(C)C)[C@@]3(C(=O)Nc4cc(Cl)ccc43)[C@H]2c2cccc(Cl)c2F)c(OC)c1 (mixture of isomers) [rac-SIP-PEG-2] : Body Weights X ± SD (g), End is 15.4

###

- Tested on: SJSA-1 xenografted tumor
- measurement_protocol: Inhibitory effect on the growth of SJSA-1 xenografted tumor in nude mice
- Assay type: in vivo
- condition: Start of administration (8 days after inoculation)
observed_property: Tumor volumes X ± SD (mm^3), Start
// units = mm^3; emit number, no label

Consider the reported Tumor volumes X ± SD (mm^3), Start for these compounds:
# compound, Tumor volumes X ± SD (mm^3), Start
rows = [
    ("COCCOCCOC(=O)OC(C)OC(=O)c1ccc(NC(=O)[C@@H]2N[C@@H](CC(C)(C)C)[C@@]3(C(=O)Nc4cc(Cl)ccc43)[C@H]2c2cccc(Cl)c2F)c(OC)c1 (mixture of isomers)", 242.6),
    ("COCCOCCOCCOC(=O)OC(C)OC(=O)c1ccc(NC(=O)[C@@H]2N[C@@H](CC(C)(C)C)[C@@]3(C(=O)Nc4cc(Cl)ccc43)[C@H]2c2cccc(Cl)c2F)c(OC)c1 (mixture of isomers) [rac-SIP-PEG-3]", 246.4),
    ("COc1cc(C(N)=O)ccc1NC(=O)[C@@H]1N[C@@H](CC(C)(C)C)C2(C(=O)Nc3cc(Cl)ccc32)[C@H]1c1cccc(Cl)c1F (mixture of isomers) [rac-SIP, reference compound]", 249.4),
]

What the record says about COCCOCCOCCOC(=O)OC(C)OC(=O)c1ccc(NC(=O)[C@@H]2N[C@@H](CC(C)(C)C)[C@@]3(C(=O)Nc4cc(Cl)ccc43)[C@H]2c2cccc(Cl)c2F)c(OC)c1 (single isomer, unassigned) [chiral-R-SIP-PEG-3] : Tumor volumes X ± SD (mm^3), Start is 252.9

What the record says about COCCOCCOCCOCCOCCOCCOCCOC(=O)OC(C)OC(=O)c1ccc(NC(=O)[C@@H]2N[C@@H](CC(C)(C)C)[C@@]3(C(=O)Nc4cc(Cl)ccc43)[C@H]2c2cccc(Cl)c2F)c(OC)c1 (mixture of isomers) : Tumor volumes X ± SD (mm^3), Start is 247.6

What the record says about COc1cccc2c1C(=O)c1c(O)c3c(c(O)c1C2=O)C[C@@](O)(C(=O)CO)C[C@@H]3O[C@H]1C[C@H](N)[C@H](O)[C@H](C)O1 [Doxorubicin ADM, Doxorubicin, reference compound] : Tumor volumes X ± SD (mm^3), Start is 241.1
